Test system: TK-10
Test: NCI tumour cell line growth inhibition, 48 h
Active and inactive are the calls of the source. Rule as the data show it: active = GI50 up to about 1.1 µM and inactive = higher.
Outcomes you can answer with include only these: label 1 = active, label 0 = inactive

Below are worked cases with known answers.
1. Cc1c(CN2CCOCC2)c(CN2CCOCC2)c(C)n1-c1ccc(Cl)cn1 ... label 0
2. CCCNC1=Nc2ccccc2NC(C)C1 (configuration not stated) ... label 0
3. Oc1[nH]c(NCc2ccc(Cl)cc2)nc2ncnc1-2 ... label 0
4. Clc1ccc(Oc2ccc(/N=C/c3ccc(Cl)cc3Cl)cc2Cl)cc1 ... label 0
5. O=c1[nH]/c(=C/c2ccc(OCc3ccccc3)cn2)c(=O)[nH]/c1=C/c1cccnc1 ... label 0

Query :: Any idea what this test logged for COc1cc([C@@H]2c3cc4c(cc3[C@@H](c3c(O)cc(O)c5c3O[C@H](c3ccc(O)c(O)c3)[C@@H](O)C5)[C@H]3COC(=O)[C@H]23)OCO4)cc(OC)c1OC ?
Result :: label 0

Query :: Per the assay record, what outcome was assigned to O=c1oc2ccccc2c(Nc2ccc3c(c2)Sc2ccccc2O3)c1[N+](=O)[O-] ?
Result :: label 0
